- Assay target: Neuronal acetylcholine receptor; alpha4/beta2 (Rattus norvegicus, UniProt P09483+P12390)
- Sequence (P09483 whole entry): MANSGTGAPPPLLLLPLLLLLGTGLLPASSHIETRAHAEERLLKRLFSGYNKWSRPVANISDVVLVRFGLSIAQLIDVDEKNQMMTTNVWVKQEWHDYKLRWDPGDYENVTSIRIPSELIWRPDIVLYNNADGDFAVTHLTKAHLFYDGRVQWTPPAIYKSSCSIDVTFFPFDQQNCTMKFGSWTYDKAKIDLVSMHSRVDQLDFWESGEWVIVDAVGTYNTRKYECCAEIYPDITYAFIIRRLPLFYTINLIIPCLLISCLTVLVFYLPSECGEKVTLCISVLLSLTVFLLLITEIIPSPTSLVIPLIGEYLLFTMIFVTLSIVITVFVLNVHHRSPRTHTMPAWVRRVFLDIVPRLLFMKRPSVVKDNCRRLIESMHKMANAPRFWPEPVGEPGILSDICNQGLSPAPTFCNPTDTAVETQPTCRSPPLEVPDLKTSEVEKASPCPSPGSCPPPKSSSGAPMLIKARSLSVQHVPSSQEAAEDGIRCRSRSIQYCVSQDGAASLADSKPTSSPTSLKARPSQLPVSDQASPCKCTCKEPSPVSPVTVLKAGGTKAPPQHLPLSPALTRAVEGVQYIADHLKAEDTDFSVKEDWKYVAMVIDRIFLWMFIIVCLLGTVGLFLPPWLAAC
- Sequence (P12390 whole entry): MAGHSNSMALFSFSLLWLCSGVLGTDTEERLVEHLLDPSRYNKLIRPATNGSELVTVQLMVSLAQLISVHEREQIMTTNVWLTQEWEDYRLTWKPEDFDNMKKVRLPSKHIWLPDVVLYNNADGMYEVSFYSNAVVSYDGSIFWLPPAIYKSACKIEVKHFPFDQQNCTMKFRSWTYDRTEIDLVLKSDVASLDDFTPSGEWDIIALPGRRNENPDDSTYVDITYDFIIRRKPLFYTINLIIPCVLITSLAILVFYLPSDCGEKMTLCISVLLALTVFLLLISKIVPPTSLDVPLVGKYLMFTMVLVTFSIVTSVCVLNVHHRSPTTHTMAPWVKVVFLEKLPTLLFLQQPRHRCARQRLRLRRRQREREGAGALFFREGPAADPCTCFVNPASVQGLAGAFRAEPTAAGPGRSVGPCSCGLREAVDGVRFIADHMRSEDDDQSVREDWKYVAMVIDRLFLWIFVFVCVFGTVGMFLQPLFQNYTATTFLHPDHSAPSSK
- Assay summary: Displacement of [3H]cytisine from alpha4beta2 nicotinic acetylcholine receptor in rat brain minus cerebellum membrane
Experimental readout: Ki

>>> reported("Cc1ccc(-c2ccc(N3C[C@H]4CN(C)C[C@H]4C3)nn2)cc1")
"> 100 µM"
>>> reported("c1ccc(-c2ccc(N3C[C@H]4CNC[C@H]4C3)cc2)cc1")
"> 10 µM"
>>> reported("CCOc1cncc(N2C[C@H]3CNC[C@H]3C2)c1")
"3.5e-05 µM"
>>> reported("CN1C[C@@H]2CN(c3ccc(-c4ccccc4)cc3)C[C@@H]2C1")
"> 100 µM"
>>> reported("C[N+]1(C)C[C@H]2CN(c3ccc(Cl)nc3)C[C@H]2C1")
"0.21 µM"
>>> reported("Cc1cc(C)cc(-c2ccc(N3C[C@H]4CN(C)C[C@H]4C3)nn2)c1")
"> 100 µM"
>>> reported("Cc1cccc(-c2ccc(N3C[C@H]4CN(C)C[C@H]4C3)nn2)c1")
"> 100 µM"
>>> reported("CN1C[C@@H]2CN(c3ccc(-c4ccccc4)cn3)C[C@@H]2C1")
"> 100 µM"
>>> reported("CN1C[C@@H]2CN(c3ccc(-c4ccccc4)nc3)C[C@@H]2C1")
"28 µM"
>>> reported("COc1ccc(-c2ccc(N3C[C@H]4CN(C)C[C@H]4C3)nn2)cc1")
"> 100 µM"

Cited source: ChEMBL document CHEMBL1137790
